Data origin: paper PMC10107299

Assay: In vivo pharmacokinetic study in rats
Parameters: species or system Sprague-Dawley rats
Settings: male, Sprague-Dawley, plasma, iv; rat, 10 mg kg^−1 i.v.; read-out: distribution volume VD
Experimental: Encouraged by these promising in vitro results, an in vivo pharmacokinetic study was conducted for H2 and L2 in mice (1 mg kg^−1, i. v.) and in rats for L2 (10 mg kg^−1, i. v.). Compound concentrations were monitored in plasma and urine (Figure 6). […] In fact, concentrations above the K ds were detected over the entire observation period of 5 h. […] In rats, higher amounts of L2 were detected both in plasma and urine, not solely corresponding to the 10‐fold increased dose. […]
Readout Label: Vd (L/kg)
Please give a number only; it is taken to be in L/kg.

May I ask what Vd has been recorded for `O=C(CCc1ccc(O[C@@H]2O[C@H](CO)[C@H](O)[C@H](O)[C@H]2O)cc1)Nc1ccc(CCc2ccc(NC(=O)CCc3ccc(O[C@@H]4O[C@H](CO)[C@H](O)[C@H](O)[C@H]4O)cc3)cc2S(=O)(=O)O)c(S(=O)(=O)O)c1` ?
0.46

====

Target: LecA (Pseudomonas aeruginosa)
Construct: made in house
Assay: Competitive binding assay based on fluorescence polarization
Conditions: TBS/Ca2+ buffer, 25% DMSO; divalent ligands at lower assay limit; read-out: IC50 (LecA competitive binding, fluorescence polarization)
Procedure: All synthesized galactosides were then evaluated for LecA inhibition using a competitive binding assay based on fluorescence polarization (Figure S1).[24] Expression and purification of LecA as well as competitive binding by fluorescence polarization was performed as described by Joachim et al..[9] […] Averages and standard deviations were calculated from at least three independent experiments. […] Figure S1: Evaluation of amide divalent LecA ligands in a competitive binding assay based on fluorescence […]
Readout Label: IC50
Respond with the figure and its unit, in that order.

May I ask what IC50 has been recorded for O=[N+]([O-])c1ccc(O[C@@H]2O[C@H](CO)[C@H](O)[C@H](O)[C@H]2O)cc1 [pNO2-Ph-β-Gal, reference compound] ?
39.8 µM

====

Attribute: half-life at 1 µM
Assay: in vitro
Format: in vitro ADME
Conditions: mouse plasma, pH 7.4, 37 °C, read-out: Plasma stability t1/2 Mouse
Please give a number only; it is taken to be in h.

O=C(/C=C/c1ccc(O[C@@H]2O[C@H](CO)[C@H](O)[C@H](O)[C@H]2O)cc1)Nc1ccc(OCCOc2ccc(NC(=O)/C=C/c3ccc(O[C@@H]4O[C@H](CO)[C@H](O)[C@H](O)[C@H]4O)cc3)cc2)cc1 [Compound D1] : 3
O=C(N/N=C/c1ccc(OCCOc2ccc(/C=N/NC(=O)c3ccc(O[C@@H]4O[C@H](CO)[C@H](O)[C@H](O)[C@H]4O)cc3)cc2)cc1)c1ccc(O[C@@H]2O[C@H](CO)[C@H](O)[C@H](O)[C@H]2O)cc1 [Compound 14, reference compound] : 0.815
O=C(CCc1ccc(O[C@@H]2O[C@H](CO)[C@H](O)[C@H](O)[C@H]2O)cc1)Nc1ccc(OCCOc2ccc(NC(=O)CCc3ccc(O[C@@H]4O[C@H](CO)[C@H](O)[C@H](O)[C@H]4O)cc3)cc2)cc1 [Compound D2] : 3.04

Consider the additional molecule presented here.
May I ask what half-life at 1 µM has been recorded for `O=C(CCc1ccc(O[C@@H]2O[C@H](CO)[C@H](O)[C@H](O)[C@H]2O)cc1)Nc1ccc(OCCOc2ccc(NC(=O)CCc3ccc(O[C@@H]4O[C@H](CO)[C@H](O)[C@H](O)[C@H]4O)cc3)cn2)nc1` ?
1.35

====

Target: LecA (Pseudomonas aeruginosa, UniProt Q05097)
Construct: made in house
Sequence (Q05097 whole entry): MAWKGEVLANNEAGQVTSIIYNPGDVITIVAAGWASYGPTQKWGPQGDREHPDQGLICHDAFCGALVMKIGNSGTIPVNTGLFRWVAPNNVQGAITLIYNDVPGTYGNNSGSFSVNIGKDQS
Assay: Direct binding to immobilized LecA by surface plasmon resonance (SPR)
Readout Label: koff (s⁻¹)
Please give a number only; it is taken to be in s⁻¹.

Consider the worked cases shown below.
O=C(CCc1ccc(O[C@@H]2O[C@H](CO)[C@H](O)[C@H](O)[C@H]2O)cc1)Nc1ccc(OCCCOc2ccc(NC(=O)CCc3ccc(O[C@@H]4O[C@H](CO)[C@H](O)[C@H](O)[C@H]4O)cc3)cn2)nc1 [Compound I2] : 0.00809
O=C(/C=C/c1ccc(O[C@@H]2O[C@H](CO)[C@H](O)[C@H](O)[C@H]2O)cc1)Nc1ccc(Oc2ccc(NC(=O)/C=C/c3ccc(O[C@@H]4O[C@H](CO)[C@H](O)[C@H](O)[C@H]4O)cc3)cc2)cc1 [Compound B1] : 0.00596

Consider the additional compound presented here.
May I ask what koff has been recorded for O=C(/C=C/c1ccc(O[C@@H]2O[C@H](CO)[C@H](O)[C@H](O)[C@H]2O)cc1)Nc1ccc(OCCOc2ccc(NC(=O)/C=C/c3ccc(O[C@@H]4O[C@H](CO)[C@H](O)[C@H](O)[C@H]4O)cc3)cc2)cc1 [Compound D1] ?
0.00249

====

Target: LecA (Pseudomonas aeruginosa)
Construct: made in house
Test: Direct binding to immobilized LecA by surface plasmon resonance (SPR)
Note to self: class labels come from recorded koff, ranges listed here: low class (below 0.003 s⁻¹), middle class (0.003 s⁻¹ to below 0.005 s⁻¹), high class (0.005 s⁻¹ or more)

// below: answered molecules
O=C(/C=C/c1ccc(O[C@@H]2O[C@H](CO)[C@H](O)[C@H](O)[C@H]2O)cc1)Nc1ccc(OCCCCOc2ccc(NC(=O)/C=C/c3ccc(O[C@@H]4O[C@H](CO)[C@H](O)[C@H](O)[C@H]4O)cc3)cc2)cc1 : middle class
O=C(/C=C/c1ccc(O[C@@H]2O[C@H](CO)[C@H](O)[C@H](O)[C@H]2O)cc1)Nc1ccc(OCCCOc2ccc(NC(=O)/C=C/c3ccc(O[C@@H]4O[C@H](CO)[C@H](O)[C@H](O)[C@H]4O)cc3)cc2)cc1 [Compound E1] : low class
O=C(CCc1ccc(O[C@@H]2O[C@H](CO)[C@H](O)[C@H](O)[C@H]2O)cc1)Nc1ccc(CCc2ccc(NC(=O)CCc3ccc(O[C@@H]4O[C@H](CO)[C@H](O)[C@H](O)[C@H]4O)cc3)cc2S(=O)(=O)O)c(S(=O)(=O)O)c1 : high class
O=C(CCc1ccc(O[C@@H]2O[C@H](CO)[C@H](O)[C@H](O)[C@H]2O)cc1)Nc1ccc(OCCOc2ccc(NC(=O)CCc3ccc(O[C@@H]4O[C@H](CO)[C@H](O)[C@H](O)[C@H]4O)cc3)cn2)nc1 : low class
O=C(CCc1ccc(O[C@@H]2O[C@H](CO)[C@H](O)[C@H](O)[C@H]2O)cc1)Nc1ccc(OCOc2ccc(NC(=O)CCc3ccc(O[C@@H]4O[C@H](CO)[C@H](O)[C@H](O)[C@H]4O)cc3)cc2)cc1 : middle class

Which class does `O=C(/C=C/c1ccc(O[C@@H]2O[C@H](CO)[C@H](O)[C@H](O)[C@H]2O)cc1)Nc1ccc(OCCOc2ccc(NC(=O)/C=C/c3ccc(O[C@@H]4O[C@H](CO)[C@H](O)[C@H](O)[C@H]4O)cc3)cn2)nc1` fall in?
low class

Which class does `O=C(CCc1ccc(O[C@@H]2O[C@H](CO)[C@H](O)[C@H](O)[C@H]2O)cc1)Nc1ccc(Oc2ccc(NC(=O)CCc3ccc(O[C@@H]4O[C@H](CO)[C@H](O)[C@H](O)[C@H]4O)cc3)cc2)cc1` fall in?
middle class

Which class does `O=C(CCc1ccc(O[C@@H]2O[C@H](CO)[C@H](O)[C@H](O)[C@H]2O)cc1)Nc1ccc(OCCCCOc2ccc(NC(=O)CCc3ccc(O[C@@H]4O[C@H](CO)[C@H](O)[C@H](O)[C@H]4O)cc3)cc2)cc1` fall in?
middle class

Which class does `O=C(CCc1ccc(O[C@@H]2O[C@H](CO)[C@H](O)[C@H](O)[C@H]2O)cc1)Nc1ccc(OCCCCOc2ccc(NC(=O)CCc3ccc(O[C@@H]4O[C@H](CO)[C@H](O)[C@H](O)[C@H]4O)cc3)cn2)nc1` fall in?
high class

====

Target: LecA (Pseudomonas aeruginosa)
Construct: made in house
Experiment: Direct binding to immobilized LecA by surface plasmon resonance (SPR)
Settings: SPR single-cycle kinetics, 25 °C, N=3 (I1 N=1)
Attribute: kon

Consider the worked cases shown below.
O=C(/C=C/c1ccc(O[C@@H]2O[C@H](CO)[C@H](O)[C@H](O)[C@H]2O)cc1)Nc1ccc(Oc2ccc(NC(=O)/C=C/c3ccc(O[C@@H]4O[C@H](CO)[C@H](O)[C@H](O)[C@H]4O)cc3)cc2)cc1 : 89 ± 29 x10^3/Ms
O=C(/C=C/c1ccc(O[C@@H]2O[C@H](CO)[C@H](O)[C@H](O)[C@H]2O)cc1)Nc1ccc(OCCCOc2ccc(NC(=O)/C=C/c3ccc(O[C@@H]4O[C@H](CO)[C@H](O)[C@H](O)[C@H]4O)cc3)cc2)cc1 [Compound E1] : 16.9 ± 5.2 x10^3/Ms
O=C(/C=C/c1ccc(O[C@@H]2O[C@H](CO)[C@H](O)[C@H](O)[C@H]2O)cc1)Nc1ccc(OCCOc2ccc(NC(=O)/C=C/c3ccc(O[C@@H]4O[C@H](CO)[C@H](O)[C@H](O)[C@H]4O)cc3)cn2)nc1 : 121 ± 6.8 x10^3/Ms

May I ask what kon has been recorded for `O=C(CCc1ccc(O[C@@H]2O[C@H](CO)[C@H](O)[C@H](O)[C@H]2O)cc1)Nc1ccc(OCOc2ccc(NC(=O)CCc3ccc(O[C@@H]4O[C@H](CO)[C@H](O)[C@H](O)[C@H]4O)cc3)cc2)cc1` ?
303 ± 20 x10^3/Ms
